- assay.text: Standard protocol for determination of kcat and KM (continuous spectrophotometric assay, Acetyl CoA hydrolysis at 235 nm)
- Format: biochemical
- stated.conditions: purified protein; about 23° C.; 20 mM HEPES pH 6.8, 10% ethylene glycol, 0.2 mM acetyl CoA
- Procedure: KM was calculated from the initial reaction rates obtained from concentrations of glyphosate ranging from 0.125 to 10 mM, using the Lineweaver-Burke transformation of the Michaelis-Menten equation. kcat/KM was determined by dividing the value determined for kcat by the value determined for KM. Using this methodology, kinetic parameters for a number of GAT polypeptides exemplified herein were determined. […]
Listed below: Kcat values for each entry.
Write the value in s⁻¹ as a bare number.

# molecule, Kcat, s⁻¹
data = [
    ("SEQ ID NO: 327: GAT polypeptide (protein, 15_11F9, GAT polypeptide) MIEVKPINAEDTYEIRHRILRPNQPLEACKYETDLLRGAFHLGGYYRGKLVSIASFNQAEHPELEGQKQYQLRGMATLEGYREQKAGSTLIRHAEELLRRKGADLLWCNARTSASGYYKKLGFSEQGEVYDIPPTGPHILMYKKLT", 1.27),
    ("SEQ ID NO: 405: GAT polypeptide (protein, 6_4A10, GAT polypeptide) MIEVKPINAEDTYEIRHRILRPNQPLEACMYETDLLGGTFHLGGYYRGKLISIASFHQAEHPELEGQKQYQLRGMATLEGYREQKAGSTLIRHAEELLRKKGADLLWCNARTSASGYYKKLGFSEQGEVYDIPPVGPHILMYKKLT", 0.917),
]

Query molecule follows.
Kcat lookup needed for SEQ ID NO: 401: GAT polypeptide (protein, 6_2H1, GAT polypeptide) MIEVKPINAEDTYEIRHRVLRPNQPLEACMYETDLLGGTFHLGGYYRGKLISIASFHQAEHPELEGQKPYQLRGMATLEGYREQKAGSTLIRHAEELLRKKGADLLWCNARTSASGYYKKLGFSEQGEIYDIPPIGPHILMYKKLT , thanks.
0.443
